Give measured TGI for each item. Keep answers brief.
System: TK-10 renal
Assay: NCI tumour cell line growth inhibition, 48 h

# COMPOUND, TGI
data = [
    ("COc1ccc2cc(C(=O)/C=C/c3ccc(OC)c(OC)c3)ccc2c1", "> 100 µM"),
    ("Cc1ccc(NC(=O)SCCC(=O)O)cc1NC(=O)SCCC(=O)O", "> 100 µM"),
    ("CC1CC2C3CC(F)C4=CC(=O)C=CC4(C)C3(F)C(O)CC2(C)C1(O)C(=O)CO (centres undefined)", "> 100 µM"),
]

The record that follows has no TGI shown yet.
Inquiry: What is its TGI for TK-10 renal? Entry: CCOC(=O)Cn1nc2ccc(Nc3nc4ccccc4nc3C(=O)OCC)cc2n1
Reply text: > 100 µM

---

Give measured TGI for each item. Keep answers brief.
Test system: A498 renal
Test: NCI tumour cell line growth inhibition, 48 h

# COMPOUND, REPORTED RESULT
data = [
    ("CS(=O)(=O)C(=Cc1ccccc1Cl)S(C)(=O)=O", "> 100 µM"),
    ("O=C1OC(=O)C2C3CCC(O3)C12 (stereo not drawn)", "> 100 µM"),
]

The record that follows has no TGI shown yet.
Inquiry: Which TGI value is on record for CC1CC(=O)C(C(O)CC2CC(=O)N(c3ccccc3)C(=O)C2)C(C)C1 (stereo not drawn) ?
Reply text: > 100 µM

---

Give measured TGI for each item. Keep answers brief.
Test system: HOP-62 NSCLC
Assay: NCI tumour cell line growth inhibition, 48 h

Some compounds with known TGI results, for comparison:
# COMPOUND, REPORTED RESULT
data = [
    ("Cc1ccc(NC2=C(Cl)C(=O)c3nc(C)ccc3C2=O)cc1", "2.58 µM"),
    ("Cc1ccc(C2SC(N)=Nc3c2c(C)nn3C(=O)c2ccncc2)cc1 (stereo unspecified)", "> 10 µM"),
    ("CN/N=C(\\C)CC(=O)Nc1cccc(Cl)c1C", "> 100 µM"),
    ("COc1ccc2cc(C(=O)/C=C/c3ccc(OC)c(OC)c3)ccc2c1", "41.6 µM"),
    ("CC1=COC2=C(C)C(=O)C(=O)c3c(C)ccc1c32", "> 36.9 µM"),
    ("CN1c2ccccc2C2c3c(O)ccc(O)c3C=C([N+](=O)[O-])C21 (stereo unspecified)", "5.96 µM"),
    ("COC(=O)c1ccccc1CC1Cc2cc3c(cc2C1)CCC3", "> 100 µM"),
    ("C=CC(=O)Nc1cc2c(Nc3ccc(OCc4ccccn4)c(Cl)c3)ncnc2cc1OCCN1CCOCC1", "> 100 µM"),
    ("Cc1oc2c(c1C(=O)c1ccccc1)C(=O)c1ccccc1C2=O", "22.4 µM"),
    ("Nc1nc(=O)n(C2OC(CO)C(O)C2O)cc1F (stereo unspecified)", "0.175 µM"),
]

The record that follows has no TGI shown yet.
Inquiry: What is its TGI for HOP-62 NSCLC? Entry: C=C1CC2(OC1=O)c1ccccc1CCc1ccccc12
Reply text: 44 µM

---

Tested on: TK-10 renal
Assay: NCI tumour cell line growth inhibition, 48 h
RECORDED METRIC: TGI

Some compounds with known TGI results, for comparison:
# COMPOUND, RECORDED METRIC, REPORTED RESULT
measured = [
    ("COC(=O)c1ccccc1CC1Cc2cc3c(cc2C1)CCC3", "TGI", "> 100 µM"),
    ("CO[C@H](/C(C)=C/C=C/C(C)=C/c1coc(C)n1)[C@H](C)[C@H]1C[C@@H](O)[C@@]2(C)O[C@H]2/C=C/[C@@H](C)[C@@H]2C[C@@H](CC(=O)O2)C[C@H]2O[C@@H]2C(=O)O1", "TGI", "> 69.5 µM"),
    ("COC(=O)C1CCc2c(OC)ccc(OC)c2C1=O (stereo not given)", "TGI", "> 100 µM"),
    ("COc1ccc(C(=O)C(C(=O)C(=O)Nc2nc3ccc(OC)cc3s2)c2ccc(OC)cc2)cc1 (stereo not given)", "TGI", "> 100 µM"),
]

The record that follows has no TGI shown yet.
Inquiry: Which TGI value is on record for Nc1ncnc2c1ncn2CC(OCP(=O)(O)O)Oc1ccccc1 (stereo not given) ?
Reply text: > 100 µM
